Assignment: determine reported IC50 for the given compounds.
Molecular target: Tubulin
Assay: Inhibition of tubulin polymerization
# output: bare number, implied unit µM

// query Reported IC50, compound CC[C@@H](C)[C@@H]1NC(=O)[C@@H](NC)[C@H](O)c2ccc(O)c(c2)O[C@](C)(CC)[C@@H](C(=O)NCC(=O)O)NC1=O : ____
// result 4.8

// query Also CC[C@@]1(C)Oc2cc(c([S+]([O-])C[C@@H](O)C[C@H](N)C(=O)O)cc2O)[C@@H](O)[C@H](NC)C(=O)N[C@@H](C(C)C)C(=O)N[C@@H]1C(=O)NCC(=O)O (stereo not given in full) ?
// result 1.1

// query Also CC[C@@]1(C)Oc2cc(ccc2O)[C@@H](O)[C@H](NC)C(=O)N[C@@H](C)C(=O)N[C@@H]1C(=O)NCC(=O)O ?
// result 8.2

// query Also CC[C@@]1(C)Oc2cc(ccc2O)[C@@H](O)[C@H](NC)C(=O)N[C@@H](C(C)C)C(=O)N[C@@H]1C(=O)NCC(=O)O ?
// result 1.5
